target: T1, human C-KIT, full length, on cells (human, UniProt P10721 26-976); experiment: flow cytometry, C-KIT-transfected CHO-K1 cells, IgG1 format
T1 construct: full-length cDNA stably transfected in CHO-K1; also used here for endogenous C-KIT of TF-1 cells; also called human C-KIT+ CHO-K1 cells; C-KIT on TF-1 cells

{"binder": "MH5.23 (antibody, IgG1, V domains shown, IgG1; also called C-KIT-MH5.23) VH: QVQLVQSGAEVKKPGASVKVSCKASGYTFTDFYMNWVRQAPGQGLEWMGRIYPASGNTYYAQKFQGRVTMTRDTSTSTVYMELSSLRSEDTAVYYCARGVWYFDSWGQGTLVTVSS VL: DIQMTQSPSSLSASVGDRVTITCRASQGIRTNLAWFQQKPGKAPKSLIYAASSLQSGVPSRFSGSGSGTDFTLTISSLQPEDFATYYCQQYANYPRTFGGGTKVEIK", "EC50 (read off the curve)": "~0.2 µg/mL"}
{"binder": "MH5, human IgG1 (antibody, V domains shown, IgG1; also called C-KIT-MH5; C-KIT-MHS) VH: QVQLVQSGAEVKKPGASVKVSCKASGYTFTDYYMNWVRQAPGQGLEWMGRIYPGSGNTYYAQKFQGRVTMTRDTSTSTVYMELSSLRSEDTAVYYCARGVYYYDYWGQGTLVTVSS VL: DIQMTQSPSSLSASVGDRVTITCRASQGIRTNLAWFQQKPGKAPKSLIYSASSLQSGVPSRFSGSGSGTDFTLTISSLQPEDFATYYCQQYANYPRTFGGGTKVEIK", "EC50 (read off the curve)": "~0.3 µg/mL"}

These measurements were taken from patent US20200283521A1.
